Assay: inhibitors of hydroxyurea-induced Chk1 phosphorylation, primary screen, imaging, HeLa, phospho-Chk1 antibody, percent positive cells (AID 1186)
Settings: hydroxyurea-induced phospho-Chk1 immunofluorescence imaging, higher = more signal
Listed molecules paired with reported z-score
Field format: numeric only.

Below are worked cases with known answers.
O=C(NCc1ccccc1)[C@@H]1c2ccccc2C(=O)N(Cc2ccccc2C(F)(F)F)[C@H]1c1ccc(CO)cc1; -0.496
[N-]=[N+]=NCc1ccccc1C[C@@]1(C(=O)NCc2ccccc2)N=C(c2ccc(OCCCO)cc2)O[C@@H]1c1ccccc1N=[N+]=[N-]; -0.299
C=CCOC(=O)[C@H]1[C@@H]2C(=O)O[C@@H](c3ccccc3)[C@@H](c3ccccc3)N2[C@@H](c2ccc(OCCOC(=O)[C@H]3C[C@H]4C(=O)N[C@@H](CC(C)C)C(=O)N4[C@H]3c3cccc(OCCO)c3)cc2)[C@]12C(=O)Nc1ccc(I)cc12; -0.592
CC(C)C(=C=CC[C@H](O)c1ccc(OCCO)cc1)C[C@H](O)c1ccccn1; -0.0725
O=C1O[C@@H](c2ccccc2)[C@@H](c2ccccc2)N2[C@@H](c3ccccc3OCCO)[C@]3(C(=O)Nc4ccc(C#CCCO)cc43)[C@@H](C(=O)N3CCCCCCC3)[C@H]12; -0.333

Okay, next one:
Query: Quick one: z-score of C=C(C)c1cc2c(c(CCCCCC)n1)[Si](C(C)C)(C(C)C)OC2 ?
Reply: 0.213

---

Assay: small-molecule microarray binders of probe aDKK1, primary screen, biochemical, biotinylated probe, 635/667 nm fluorescence (AID 1099);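 further: score merges 667nm spot fluorescence with signal to noise across triplicate slides; reference of the scale not given here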
Conditions: higher = more signal
REPORTED ENDPOINT: composite z-score
Field format: numeric only.

Below are worked cases with known answers.
C[C@@H]1NC(=O)[C@@]23C(=O)N[C@@H](Cc4ccccc4)C2[C@H](C)[C@@]2(C)O[C@H]2C3/C=C/C/C=C\CNC(=O)[C@@H]2CCCN2C1=O (stereo partly drawn); -0.33
COC(=O)c1c(CC[C@@H](CO)NC(=O)N2CCC[C@H]2Cn2cc(Cc3ccccc3)nn2)oc(C(C)=O)c1C(=O)OC; -0.0956

Okay, next one:
Query: Quick one: composite z-score of COc1ccc([Si](C)(C)[C@@H]2[C@@H](CC(=O)N(CCO)Cc3ccccc3)O[C@]3(C(=O)N(Cc4cccc(N5C(=O)c6cccc7cccc5c67)c4)c4ccccc43)[C@H]2C)cc1 ?
Reply: -0.277

---

Biological target: Neurogenic locus notch homolog protein 3 (Homo sapiens)
Test: NOTCH3 binders on small-molecule microarray, primary screen, biochemical, 635/667 nm fluorescence (AID 1096)
Details: NOTCH3 binding, 635 nm fluorescence, higher = more signal
# thresholds on composite z-score define classes: group A: < 0.02; group B: ≥ 0.02 and < 1; group C: ≥ 1

COc1ccc(-c2nc(-c3ccccc3)c3c(c2C)CO[Si]3(C(C)C)C(C)C)cn1; group A
COC(=O)[C@@]1(Cc2ccc(F)cc2)[C@H]2c3cc(C(=O)N4CCCC4)n(CCc4ccc(O)c(O)c4)c3C[C@H]2CN1C(=O)c1ccccc1; group A
C#CCN([C@@H](Cc1ccc(O)cc1)C(=O)OC)[C@@H](/C=C/C1CC1)[C@H](O)Cc1ccccc1; group B
O=C1C2C=CC(C(O)c3ccc(F)cc3)N(n3cnnc3)C2C(=O)N1Cc1ccccc1 (centres undefined); group A
CCCCN1CC=CC23O[C@@H]4/C=C\CCC(C)OC(=O)C4[C@H]2C(=O)N(C(CO)C(C)C)[C@@H]3C1=O (some centres undefined); group B
CCOc1cc(C(O)C2C=CC3C(=O)N(C)C(=O)C3N2Nc2ccccc2)ccc1O (centres undefined); group B
CN(C)C(=O)[C@@]1(CCS(=O)(=O)c2ccccc2)N=C(c2ccc(OCCCO)cc2)O[C@H]1c1ccccc1; group C
Cc1cc(C)c(C(O)C2C=CC3C(=O)NC(=O)C3N2Nc2ccc(Cl)cc2Cl)c(C)c1 (centres undefined); group B
Cc1ccc(S[C@]2(C(=O)NCC(F)(F)F)CC(=O)N(Cc3ccccc3C(F)(F)F)[C@@H]2c2ccc(CO)cc2I)cc1; group A
COc1ccc(CCN2C(=O)[C@@]3(Cc4ccccc42)c2ccccc2C(=O)N(Cc2ccccc2OC)[C@H]3c2ccc(CO)cc2)cc1; group A

Query: Given Cc1ccc(S[C@]2(C(=O)NCCCN(C)C)CC(=O)N(C3CCCCC3)[C@@H]2c2ccc(CO)cc2)cc1 , name the class its composite z-score places it in.
Reply: group A

Query: Here is the next compound: Cn1cccc1C(O)C1C=CC2C(=O)NC(=O)C2N1Nc1ccc(Cl)cc1Cl (centres undefined)
Reply: group C

Query: Here is the next compound: COC(=O)c1cn(C[C@@H](Cc2ccccc2)NC(=O)N[C@H](CO)CCc2oc(C(C)=O)c(C(=O)OC)c2C(=O)OC)nn1
Reply: group C

Query: Here is the next compound: COC(=O)c1ccc([C@H](NC(=O)c2ccco2)[C@]2(C)C[C@H]2C2CCCCC2)cc1
Reply: group A

Query: Here is the next compound: CCOC(=O)C[C@H]1[C@H](OC(=O)c2cc3ccccc3oc2=O)[C@@H](NC(=O)c2ccc(-c3ccccc3)cc2)c2cc(OCCCO)ccc2N1C(=O)c1ccc2ccccc2n1
Reply: group C

Query: Here is the next compound: NCCCCCNC(=O)[C@@H]1C[C@@H]2C(=O)NCC(=O)N2[C@@H]1c1cccc(OCCO)c1
Reply: group B

Query: Here is the next compound: O=C(NCC(F)(F)F)[C@@H]1c2ccccc2C(=O)N(Cc2cc(F)cc(C(F)(F)F)c2)[C@H]1c1ccc(CO)cc1
Reply: group A

Query: Here is the next compound: CN(C)CCCNC(=O)[C@@]1(c2ccc([N+](=O)[O-])cc2)CC(=O)N(CC23CC4CC(CC(C4)C2)C3)[C@@H]1c1ccc(CO)cc1I
Reply: group C

Query: Here is the next compound: O=C1OCCC=C[C@H]2OC34C=CCN(Cn5nnc6ccccc65)C(=O)[C@H]3N(CCCCCCO)C(=O)[C@@H]4C12 (some centres undefined)
Reply: group A

Query: Here is the next compound: O=C1O[C@H](c2ccccc2)[C@H](c2ccccc2)N2[C@H]1[C@@H](C(=O)O)[C@]1(C(=O)Nc3ccc(C#CC4=CCCCC4)cc31)[C@H]2c1ccc(O)cc1
Reply: group B

Query: Here is the next compound: CC(CO)N1C(=O)[C@@H]2[C@H]3C(=O)OCC=C[C@H]3OC23C=CCN(CCN2CCOCC2)C(=O)[C@@H]13 (some centres undefined)
Reply: group B

---

Test system: Human papillomavirus type 1a protein E7 (residues 44-93)
Assay: HPV1a E7 fragment binders on microarrays, primary screen, biochemical, small-molecule microarray, residues 44-93, 635 nm fluorescence (AID 1108);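 further: E7 fragment applied at 1 µg/mL in TBST for 1 h at 4 C; score combines spot fluorescence with its signal to noise ratio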
Conditions: small-molecule microarray binding, fluorescence 635 nm; higher = more signal
Listed molecules paired with reported composite z-score

Below are worked cases with known answers.
COC(=O)[C@@]1(Cc2ccccc2)[C@H]2c3cc(C(=O)N(C)C)n(CCc4ccc(O)c(OC)c4)c3C[C@H]2CN1C(=O)c1ccccc1; 0.351
COc1ccc([Si](C)(C)[C@H]2[C@H](CC(=O)N(CCO)Cc3ccccc3)O[C@@]3(C(=O)N(Cc4cccc(N5CCOC5=O)c4)c4ccccc43)[C@@H]2C)cc1; 0.671
C=CCC(OC(C)=O)[C@@H]1[C@@H](N(Cc2cc3ccccc3o2)C(=O)Cc2ccc(F)cc2)c2cc(OCCCO)ccc2N1C(=O)c1ccc2ccccc2c1 (stereo partly specified); -0.722
C[N+](C)(C)CCCCCCNC(=O)[C@H]1C[C@H]2C(=O)N[C@@H](Cc3ccccc3)C(=O)N2[C@H]1c1ccc(O)cc1; -0.306
C=CCOC(=O)[C@H]1[C@@H]2C(=O)O[C@@H](c3ccccc3)[C@@H](c3ccccc3)N2[C@@H](c2ccc(OCCOC(=O)[C@@H]3C[C@@H]4C(=O)N[C@@H](CCCCNC(C)=O)C(=O)N4[C@@H]3c3ccc(O)cc3)cc2)[C@]12C(=O)Nc1ccc(I)cc12; 1.37

Okay, next one:
Query: Quick one: composite z-score of COC(=O)c1ccc([C@H](NC(=O)c2ccco2)[C@]2(C)C[C@H]2C2CCCCC2)cc1 ?
Reply: -0.0855

---

Molecular target: Follistatin-related protein 3 (Homo sapiens)
Experiment: FSTL3 binders on small-molecule microarrays, primary screen, biochemical, small-molecule microarray, 635 nm fluorescence (AID 1105);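 further: score merges emission near 667 nm and signal to noise per printed spot across three slides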
Conditions: FSTL3 binding, higher = more signal
REPORTED ENDPOINT: composite z-score

Below are worked cases with known answers.
[N-]=[N+]=NCc1ccccc1C[C@@]1(C(=O)NCc2ccccc2)N=C(c2ccc(OCCCO)cc2)O[C@@H]1c1ccccc1N=[N+]=[N-]; -0.206
CC(C)N1C(=O)C[C@@](C(=O)NCCCN(C)C)(c2ccc([N+](=O)[O-])cc2)[C@H]1c1ccc(CO)cc1; -0.309
COc1ccc([Si](C)(C)[C@@H]2[C@@H](CC(=O)N3Cc4ccccc4C[C@H]3CO)O[C@]3(C(=O)N(Cc4cccc(N5C(=O)c6cccc7cccc5c67)c4)c4ccccc43)[C@H]2C)cc1; 1.43

Query: Quick one: composite z-score of Cc1ccc(S[C@]2(C(=O)NCC(F)(F)F)CC(=O)N(Cc3ccccc3)[C@@H]2c2ccc(CO)cc2I)cc1 ?
Reply: -0.507

Query: Here is the next compound: C[C@@H]1ON(c2ccc(C(=O)OC(C)(C)C)cc2)[C@H](c2ccc(O)cc2)[C@H]1C(=O)N1C(=O)OC[C@H]1Cc1ccccc1
Reply: 0.431

Query: Here is the next compound: O=C1O[C@H](c2ccccc2)[C@H](c2ccccc2)N2[C@H]1[C@@H](C(=O)Nc1nc3ccccc3s1)[C@]1(C(=O)Nc3ccc(C#CCCO)cc31)[C@H]2c1ccc(O)cc1
Reply: 0.763
